Target: recombinant Plk1 protein (Homo sapiens)
Construct: histidine tag (N)
Sequence (P53350 whole entry): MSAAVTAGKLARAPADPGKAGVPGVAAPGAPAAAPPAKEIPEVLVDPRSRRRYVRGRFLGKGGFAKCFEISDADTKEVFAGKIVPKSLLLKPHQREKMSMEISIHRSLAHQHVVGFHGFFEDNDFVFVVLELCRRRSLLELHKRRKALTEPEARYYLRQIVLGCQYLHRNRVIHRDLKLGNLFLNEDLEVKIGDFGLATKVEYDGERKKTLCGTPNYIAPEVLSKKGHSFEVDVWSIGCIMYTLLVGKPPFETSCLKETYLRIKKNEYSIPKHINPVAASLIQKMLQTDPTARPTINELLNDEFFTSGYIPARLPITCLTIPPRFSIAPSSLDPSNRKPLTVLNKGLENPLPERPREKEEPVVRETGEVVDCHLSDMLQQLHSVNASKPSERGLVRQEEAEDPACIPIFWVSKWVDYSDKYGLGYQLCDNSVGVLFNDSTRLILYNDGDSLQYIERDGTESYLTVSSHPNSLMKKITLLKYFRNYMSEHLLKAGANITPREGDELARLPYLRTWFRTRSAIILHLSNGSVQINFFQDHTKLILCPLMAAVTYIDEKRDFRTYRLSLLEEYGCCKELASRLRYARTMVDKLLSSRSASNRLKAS
Assay: Plk1 kinase activity inhibition assay (33P-ATP, alpha casein substrate, flash plates)
Conditions: enzymatic assay, 100 nM Li-ATP, 80 minutes at 30° C.
pIC50: −log10 of the molar value.
assayReadout: pIC50

Here are 2 compounds together with their reported answers.
1) C[C@@H](Oc1cc(-n2cnc3cc(CNS(C)(=O)=O)ncc32)sc1C(N)=O)c1ccccc1C(F)(F)F; 7.00 to 8.00
2) C[C@@H](Oc1cc(-n2cnc3cnc(CN4CCC(O)C4)cc32)sc1C(N)=O)c1ccccc1C(F)(F)F (stereo partly drawn); > 8.00

What value of pIC50 has been recorded for this entry: CC(Oc1cc(-n2cnc3cnc(CN4CCN(C)CC4)cc32)sc1C(N)=O)c1ccc(F)cc1C(F)(F)F (stereo not drawn)
> 8.00

----------
Entries and their measured pIC50 follow.
Target: recombinant Plk1 protein (Homo sapiens)
Construct: histidine tag (N)
Assay: Plk1 kinase activity inhibition assay (33P-ATP, alpha casein substrate, flash plates)
Conditions: enzymatic assay, 100 nM Li-ATP, 80 minutes at 30° C.
pIC50: −log10 of the molar value.

1) NC(=O)c1sc(-n2cnc3cnc(CO)cc32)cc1OCc1ccccc1C(F)(F)F; 7.00 to 8.00
2) C[C@@H](Oc1cc(-n2cnc3cc(CN)ncc32)sc1C(N)=O)c1ccccc1C(F)(F)F; 7.00 to 8.00
3) NC(=O)c1sc(-n2cnc3cnc(CO)cc32)cc1O[C@@H](CO)c1ccccc1Cl; > 8.00
4) C[C@@H](Oc1cc(-n2cnc3cc(CNC4CC4)ncc32)sc1C(N)=O)c1ccccc1C(F)(F)F; 7.00 to 8.00

Reported pIC50 for CCc1ccccc1COc1cc(-n2cnc3cnc(CN4CCN(C)CC4)cc32)sc1C(N)=O : what is it?
> 8.00

// returns reported pIC50 for input C[C@@H](Oc1cc(-n2cnc3cnc(CN4CCS(=O)(=O)CC4)cc32)sc1C(N)=O)c1ccccc1C(F)(F)F
7.00 to 8.00

Find the recorded pIC50 belonging to CC(Oc1cc(-n2cnc3cc(CO)ncc32)sc1C(N)=O)c1ccccc1Cl (stereo not drawn) and report it.
> 8.00

For the compound shown here, NC(=O)c1sc(-n2cnc3cnccc32)cc1OCc1ccc(F)cc1C(F)(F)F , give the reported pIC50.
7.00 to 8.00

Which pIC50 value belongs to COc1ccc2c(ncn2-c2cc(OCc3ccccc3C(F)(F)F)c(C(N)=O)s2)n1 ?
7.00 to 8.00

Could you tell me which pIC50 is on file for CC1CN(Cc2cc3c(cn2)ncn3-c2cc(O[C@H](C)c3ccccc3C(F)(F)F)c(C(N)=O)s2)CCN1C (stereo partly drawn) ?
> 8.00

What measured pIC50 goes with CCCNCc1cc2c(cn1)ncn2-c1cc(O[C@H](C)c2ccccc2C(F)(F)F)c(C(N)=O)s1 ?
7.00 to 8.00

What does the record list as pIC50 for C[C@@H](Oc1cc(-n2cnc3cnc(CN4CCN(C(=O)N(C)C)CC4)cc32)sc1C(N)=O)c1ccccc1Cl ?
> 8.00

Fill in: pIC50 of CC(=O)N1CCN(Cc2cc3c(cn2)ncn3-c2cc(O[C@H](C)c3ccccc3C(F)(F)F)c(C(N)=O)s2)CC1 is ___
7.00 to 8.00

Which pIC50 reading was recorded for the compound CC(Oc1cc(-n2cnc3cnc(CO)cc32)sc1C(N)=O)c1ccccc1F (stereo not drawn) ?
> 8.00

Which measured pIC50 value corresponds to NC(=O)c1sc(-n2cnc3cc(CO)ncc32)cc1OCc1ccccc1C(F)(F)F ?
6.00 to 7.00

So what's the measured pIC50 for this one? C[C@@H](Oc1cc(-n2cnc3cnc(CN4CCN(CCC#N)CC4)cc32)sc1C(N)=O)c1ccccc1C(F)(F)F
7.00 to 8.00

So what does the record say about pIC50 for C[C@@H](Oc1cc(-n2cnc3cnc(CN4CCC(O)CC4)cc32)sc1C(N)=O)c1ccccc1C(F)(F)F ?
> 8.00

Quick one: pIC50 for NC(=O)c1sc(-n2cnc3ccncc32)cc1OCc1cccc(C(F)(F)F)c1 ?
6.00 to 7.00
